System: C. guilliermondii
Assay: EUCAST E. Def 7.3.2 microdilution
Format: cell-based, Candida guilliermondii
Conditions: n = 62
Starred links: 1 amine or outer side, 2 acyl side, 3 side chain; linkers in the order of their positions; H or OH if unused. Positions of bridges follow the written chain, without caps; N, C: chain ends. Non-standard residues stand in square brackets, D forms with d. Residues, ends and D or L forms follow the SMILES beside them. *: point of attachment. hTyr(3S-OH,4S-OH,3'-OSO3H) = N[C@H](C(=O)O)[C@H](O)[C@@H](O)c1ccc(O)c(OS(=O)(=O)O)c1; pTerphenylCO(4''-OnC5H11) = CCCCCOc1ccc(-c2ccc(-c3ccc(C(=O)*)cc3)cc2)cc1; Orn(4R-OH,5R-OH) = O=C([C@H](C[C@@H](O)[C@@H](O)N[*:3])N[*:1])[*:2]; hTyr(3S-OH,4S-OH) = N[C@H](C(=O)O)[C@H](O)[C@@H](O)c1ccc(O)cc1; Pro(3S-OH,4S-Me) = C[C@H]1CN[C@H](C(=O)O)[C@H]1O; X1 = CCCCCOc1ccc(-c2cc(-c3ccc(C(=O)*)cc3)no2)cc1; Gln(3R-OH) = NC(=O)C[C@@H](O)[C@H](N)C(=O)O; Hyp = O=C(O)[C@@H]1C[C@@H](O)CN1
observed.property: MIC Range

[[record]]
compound = "OC(Cn1cncn1)(Cn1cncn1)c1ccc(F)cc1F [fluconazole]"
result = "0.125 to 64 µg/mL"

[[record]]
compound = "C[C@@H]1[C@H](O)[C@@H](C)/C=C/C=C/C=C/C=C/C=C/C=C/C=C/[C@H](O[C@@H]2O[C@H](C)[C@@H](O)[C@H](N)[C@@H]2O)C[C@@H]2O[C@](O)(C[C@@H](O)C[C@@H](O)[C@H](O)CC[C@@H](O)C[C@@H](O)CC(=O)O[C@H]1C)C[C@H](O)[C@H]2C(=O)O [amphotericin B]"
result = "0.06 to 0.5 µg/mL"

[[record]]
compound = "CCCCCOc1ccc(-c2ccc(-c3ccc(C(=O)N[C@H]4C[C@@H](O)[C@@H](O)NC(=O)[C@@H]5[C@@H](O)[C@@H](C)CN5C(=O)[C@H]([C@@H](C)O)NC(=O)[C@H]([C@H](O)[C@@H](O)c5ccc(O)cc5)NC(=O)[C@@H]5C[C@@H](O)CN5C(=O)[C@H]([C@@H](C)O)NC4=O)cc3)cc2)cc1 [anidulafungin] ({pTerphenylCO(4''-OnC5H11)}-[Orn(4R-OH,5R-OH)]T[Hyp][hTyr(3S-OH,4S-OH)]T[Pro(3S-OH,4S-Me)]; lactam 1-C)"
result = "0.008 to 1 µg/mL"

[[record]]
compound = "CCCCCOc1ccc(-c2cc(-c3ccc(C(=O)N[C@H]4C[C@@H](O)[C@@H](O)NC(=O)[C@@H]5[C@@H](O)[C@@H](C)CN5C(=O)[C@H]([C@H](O)CC(N)=O)NC(=O)[C@H]([C@H](O)[C@@H](O)c5ccc(O)c(OS(=O)(=O)O)c5)NC(=O)[C@@H]5C[C@@H](O)CN5C(=O)[C@H]([C@@H](C)O)NC4=O)cc3)no2)cc1 [micafungin] (X1-[Orn(4R-OH,5R-OH)]T[Hyp][hTyr(3S-OH,4S-OH,3'-OSO3H)][Gln(3R-OH)][Pro(3S-OH,4S-Me)]; lactam 1-C)"
result = "0.008 to 0.5 µg/mL"


----------
Tested on: C. albicans
Assay type: cell-based, Candida albicans
observed.property: I (intermediate) isolates, n (%)

[[record]]
compound = "Nc1nc(=O)[nH]cc1F [5-FC, 5-flucytosine]"
observed_property = "I (intermediate) isolates, n (%)"
result = "1 (0.5%)"

[[record]]
compound = "CC[C@H](C)C[C@H](C)CCCCCCCCC(=O)N[C@H]1C[C@@H](O)[C@@H](NCCN)NC(=O)[C@@H]2[C@@H](O)CCN2C(=O)[C@H]([C@H](O)CCN)NC(=O)[C@H]([C@H](O)[C@@H](O)c2ccc(O)cc2)NC(=O)[C@@H]2C[C@@H](O)CN2C(=O)[C@H]([C@@H](C)O)NC1=O [caspofungin]"
observed_property = "I (intermediate) isolates, n (%)"
result = "0 (0%)"

[[record]]
compound = "C[C@@H](c1ncncc1F)[C@](O)(Cn1cncn1)c1ccc(F)cc1F [voriconazole]"
observed_property = "I (intermediate) isolates, n (%)"
result = "0 (0%)"

[[record]]
compound = "C[C@@H]1[C@H](O)[C@@H](C)/C=C/C=C/C=C/C=C/C=C/C=C/C=C/[C@H](O[C@@H]2O[C@H](C)[C@@H](O)[C@H](N)[C@@H]2O)C[C@@H]2O[C@](O)(C[C@@H](O)C[C@@H](O)[C@H](O)CC[C@@H](O)C[C@@H](O)CC(=O)O[C@H]1C)C[C@H](O)[C@H]2C(=O)O [amphotericin B]"
observed_property = "I (intermediate) isolates, n (%)"
result = "4 (2%)"


----------
Test system: C. krusei ATCC 6558
Assay: Broth microdilution of modified HDPs
Type: cell-based, Candida krusei
Settings: 0.19 to 50 μg/mL tested
No end group written: not given here.
Examples of substances with documented MIC follow.
observed.property: MIC (µg/mL)

[[record]]
substance = "KSKRWRKFEKRVKKIFEHTKEAK-NH2 [Act4]"
readout_number = 0.78

[[record]]
substance = "GSKRWRKFEKRVKKIFEHTKEA-NH2 [Act7]"
readout_number = 0.78

[[record]]
substance = "RSKKWRKIEKRVKKIFEKTKEA-NH2 [sat122]"
readout_number = 1.56

[[record]]
substance = "KSKRWRKFEKRVKKIFEHTKEA-NH2 [Act3]"
readout_number = 0.78

[[record]]
substance = "GSKRWRKFEKRVKKIFEHTKEAK-NH2 [Act8]"
readout_number = 0.78

[[record]]
substance = "KSKRWRKFEKRVKKIFEKTKEA-NH2 [Act1]"
readout_number = 1.56

[[record]]
substance = "GSKRWRKFEKRVKKIFEETKEALPVVQGVAGVAGAVGRR-NH2 [ConCec]"
readout_number = 0.78

